Molecular target: EGFR WT (Ba/F3 cells) (Homo sapiens)
Sequence (P00533 25-1210): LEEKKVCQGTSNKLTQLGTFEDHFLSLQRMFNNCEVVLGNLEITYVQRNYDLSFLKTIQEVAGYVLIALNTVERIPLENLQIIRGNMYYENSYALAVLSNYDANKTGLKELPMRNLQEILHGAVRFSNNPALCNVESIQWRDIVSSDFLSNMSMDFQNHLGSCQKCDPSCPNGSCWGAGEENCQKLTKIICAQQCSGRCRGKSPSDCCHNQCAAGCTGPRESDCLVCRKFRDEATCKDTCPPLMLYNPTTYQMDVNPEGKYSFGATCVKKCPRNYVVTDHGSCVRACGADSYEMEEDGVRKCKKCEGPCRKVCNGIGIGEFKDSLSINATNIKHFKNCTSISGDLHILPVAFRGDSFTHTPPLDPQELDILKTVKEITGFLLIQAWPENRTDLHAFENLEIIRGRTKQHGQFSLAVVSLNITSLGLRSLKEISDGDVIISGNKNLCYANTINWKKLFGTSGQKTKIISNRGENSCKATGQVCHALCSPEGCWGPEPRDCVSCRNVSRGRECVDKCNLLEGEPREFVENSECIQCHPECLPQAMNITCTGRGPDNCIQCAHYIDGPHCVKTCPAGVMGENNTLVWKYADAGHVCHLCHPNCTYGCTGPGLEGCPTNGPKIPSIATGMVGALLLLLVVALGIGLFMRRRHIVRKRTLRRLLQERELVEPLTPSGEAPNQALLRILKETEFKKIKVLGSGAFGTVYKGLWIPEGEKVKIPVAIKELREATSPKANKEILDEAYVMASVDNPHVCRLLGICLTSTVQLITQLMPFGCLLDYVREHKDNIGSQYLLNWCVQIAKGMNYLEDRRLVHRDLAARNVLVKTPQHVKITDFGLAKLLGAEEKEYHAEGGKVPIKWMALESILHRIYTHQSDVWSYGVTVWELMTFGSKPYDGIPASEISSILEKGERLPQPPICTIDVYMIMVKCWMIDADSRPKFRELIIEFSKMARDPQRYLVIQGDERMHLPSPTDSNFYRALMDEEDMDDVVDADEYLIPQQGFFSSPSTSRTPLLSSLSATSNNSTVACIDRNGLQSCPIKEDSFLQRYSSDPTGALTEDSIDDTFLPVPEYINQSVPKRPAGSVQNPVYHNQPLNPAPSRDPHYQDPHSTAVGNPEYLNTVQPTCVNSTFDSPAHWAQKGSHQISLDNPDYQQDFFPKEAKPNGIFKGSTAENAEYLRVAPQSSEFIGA
Assay: Inhibitor activity on EGFR-dependent cell growth (CellTiter-Glo, 72 h), Ba/F3 EGFR WT
Conditions: read-out: BaF3 WT IC50
molecules and their reported IC50
Metric: IC50

| Molecule | Metric | Reported Value |
| --- | --- | --- |
| COCCC1(C)CNC(=O)c2c1[nH]c(-c1ccncc1F)c2Nc1cccc(Cl)c1OC (single isomer, unassigned) [Compound 780] | IC50 | 0.1 to 1 µM |
| COc1c(F)cccc1Nc1c(-c2ccnc(SC)n2)[nH]c2c1C(=O)NCC2 | IC50 | 0.1 to 1 µM |
| COc1c(Cl)cccc1Nc1c(-c2ccnc(N)c2)[nH]c2c1C(=O)NCC2 | IC50 | > 1 µM |
| COc1c(Cl)cccc1Nc1c(-c2ccnc(C)n2)[nH]c2c1C(=O)NC[C@H]2C[C@@H]1COCCO1 (single isomer, unassigned) | IC50 | 0.1 to 1 µM |
| COC[C@H]1CNC(=O)c2c1[nH]c(-c1ccnc3ccc(OC)nc13)c2Nc1cccc(Cl)c1OC | IC50 | < 0.1 µM |
| COc1c(Cl)cccc1Nc1c(-c2ccnc3ccc(O[C@H]4CCOC4)nc23)[nH]c2c1C(=O)NCC2 | IC50 | 0.1 to 1 µM |
| COc1c(C)cccc1Nc1c(-c2ccnc(N)n2)[nH]c2c1C(=O)NCC2 | IC50 | > 1 µM |
| CNc1nccc(-c2[nH]c3c(c2Nc2cccc(F)c2OC)C(=O)NCC3)n1 | IC50 | 0.1 to 1 µM |
